Source: the supplement of paper PMC10567573

B1: ZBED3 (parent)
chain: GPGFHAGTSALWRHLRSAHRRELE

Variants of: B1
Assay: protein stability index of a GFP-peptide fusion (GPS, HEK-293T) (PSI 1-6); higher = more stable;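 further: lentivirally expressed fusions sorted by FACS into six bins by GFP to DsRed ratio, PSI derived from sequencing read proportions per bin multiplied by bin number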
Settings: c terminus: a fixed tail appended
Entries are grouped by protein stability index into these classes: zone 1: < 2; zone 2: ≥ 2 and < 3; zone 3: ≥ 3

Consider GPGFHAGTSALWRHRRSAHRRELE . To which protein stability index class does it belong?
zone 3

GPGFHAGTSALWRHLRSTHRRELE ?
zone 2

GPGFHAGTSALWRTLRSAHRRELE ?
zone 2

GPGFHAGTSALWRHLRYAHRRELE ?
zone 2

GPGFHAGTSALWRHLNSAHRRELE ?
zone 2

YPGFHAGTSALWRHLRSAHRRELE ?
zone 2

GPGFHAGTSALWRHLRSAHRRELV ?
zone 2

GPGFHAGTSALWRHLRHAHRRELE ?
zone 1

GPGFHSGTSALWRHLRSAHRRELE ?
zone 2

GPGFHAGTSALWRHLRGAHRRELE ?
zone 2

GPGRHAGTSALWRHLRSAHRRELE ?
zone 3

GCGFHAGTSALWRHLRSAHRRELE ?
zone 1

GPGFHCGTSALWRHLRSAHRRELE ?
zone 1

GPGFHAGTSALWRHLRKAHRRELE ?
zone 2

GPGFHAGTSALWRVLRSAHRRELE ?
zone 2

GPGFHMGTSALWRHLRSAHRRELE ?
zone 2

GPGFHAGTSALWRHLRIAHRRELE ?
zone 2

GPGFHAGTSAHWRHLRSAHRRELE ?
zone 3

GPGFHAGTSALWRHLRSAHRRESE ?
zone 2

GPGFHAGTMALWRHLRSAHRRELE ?
zone 2

GPGFHAGTSALWRHLRCAHRRELE ?
zone 1

GPGFHAGTSAIWRHLRSAHRRELE ?
zone 2

GPGFHAGTSALWRHLRSAHRRFLE ?
zone 2

GPGFHAGTSALWRHLRSAHVRELE ?
zone 2

GPGFHAGTSALWNHLRSAHRRELE ?
zone 2

GPGFHAGTSALWRHLRSLHRRELE ?
zone 2

GPGFHADTSALWRHLRSAHRRELE ?
zone 3

GPLFHAGTSALWRHLRSAHRRELE ?
zone 3

GPGFHAYTSALWRHLRSAHRRELE ?
zone 2

SPGFHAGTSALWRHLRSAHRRELE ?
zone 1

GPGFHAGTSALWRELRSAHRRELE ?
zone 2

GPGFHAGCSALWRHLRSAHRRELE ?
zone 2

GPGFHAGTSALWRHLRSAHRCELE ?
zone 3

GPGFHAGTSALWQHLRSAHRRELE ?
zone 2

GPGFHAGTSALWIHLRSAHRRELE ?
zone 1

GPGFHAGTSALWRHLRSAHRRRLE ?
zone 2

GPGFHAGTSALWRHLCSAHRRELE ?
zone 1

GPGFHAGTSALWRHLRSAHRWELE ?
zone 2

GPGFHAGTSALWRHLRSAHRRELM ?
zone 2

GPGFHAGTSALWRHLRSAHRRCLE ?
zone 2

GPGFQAGTSALWRHLRSAHRRELE ?
zone 3

GPGFHAGTSALWRKLRSAHRRELE ?
zone 2

GPGFHASTSALWRHLRSAHRRELE ?
zone 2

GPGQHAGTSALWRHLRSAHRRELE ?
zone 3

GPGFHAGTSALWSHLRSAHRRELE ?
zone 1

GPGFHAGTSALWRHLRSAQRRELE ?
zone 2

GPGFCAGTSALWRHLRSAHRRELE ?
zone 3

GPGFHAGTSALWRHLRSAHPRELE ?
zone 2

GPNFHAGTSALWRHLRSAHRRELE ?
zone 3

GPGFHAGTSALWRHLRSAMRRELE ?
zone 1

GPGFHAVTSALWRHLRSAHRRELE ?
zone 2

GPGFHAGESALWRHLRSAHRRELE ?
zone 2

GPGFHAGTSALWRHLRSAHTRELE ?
zone 1

GPGFHAETSALWRHLRSAHRRELE ?
zone 3

GPGFHAGTSALWRHLRSASRRELE ?
zone 2

GPGFPAGTSALWRHLRSAHRRELE ?
zone 3

GPGFHAGTSALWRRLRSAHRRELE ?
zone 2

GPGFHAGTSALWRHLRNAHRRELE ?
zone 1

GPGFHAGTSYLWRHLRSAHRRELE ?
zone 2

GPGFHAGTSALWRHLPSAHRRELE ?
zone 2

GPGFHAGTSALWRHDRSAHRRELE ?
zone 1

GPGFHAGTSALWRHLRSGHRRELE ?
zone 1

GPGFHAGTSALWRHLRSAHRDELE ?
zone 2

GPGFHAGTSALWRHLRSYHRRELE ?
zone 1

GPGFHAGTSALWRHLRSAHRRQLE ?
zone 1

GPGFHAGRSALWRHLRSAHRRELE ?
zone 2

GPGFAAGTSALWRHLRSAHRRELE ?
zone 3

GPGTHAGTSALWRHLRSAHRRELE ?
zone 3

GPGFHAGTSALWRHLRSAHRREVE ?
zone 1

GPGFHPGTSALWRHLRSAHRRELE ?
zone 2

GPGFHAGTSALWKHLRSAHRRELE ?
zone 2

GPGFHAGTSALWRHLRSAHRRELH ?
zone 1

GPHFHAGTSALWRHLRSAHRRELE ?
zone 3

GPGCHAGTSALWRHLRSAHRRELE ?
zone 3
